B1: TPR t1 (parent)
chain: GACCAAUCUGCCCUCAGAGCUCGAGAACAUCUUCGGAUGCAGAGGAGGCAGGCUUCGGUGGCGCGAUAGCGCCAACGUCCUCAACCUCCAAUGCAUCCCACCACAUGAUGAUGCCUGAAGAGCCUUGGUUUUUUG

# Variants of: B1
# test-name: polymerase ribozyme fitness, log enrichment relative to wild type (log ratio); higher = more active; in vitro selection for triplet polymerase activity
Please note: t applies when polymerase ribozyme fitness (log ratio) is -1 or greater, and f applies otherwise.

[
  {
    "seq": "GACCAAUCGGCCCUCAGAGCUCGAGAUCAUCUUCGGAUGCAGAGGAGGCAGGCUUCGGUGGCGCGAUAGCGCCAACGUCCUCAACCUCCAAUGCAUCCCACCACAUGAUGAUGCCUGAAGAGCCUUGGUUUUUUG [U9G A27U]",
    "cat": "f"
  },
  {
    "seq": "GACCAAUCUGCCCUCAGCGCUCGAGAACAUCUUCGGAUGCAGAGGAGGCAGGCUUCGGUGGCGCGAUAGCGCCAACGUCCUCAACCUCCAAUGCAUCCCACCACAUGAUGAUGCCUGAAGAGCCUUGGUUUUUUG [A18C]",
    "cat": "f"
  },
  {
    "seq": "GACCAAUCUGCCCUCAGAGCUCGAGAACAUCUUCGGAUGCAGAGGAGGCAGGCUUCGGUGGCGCGAUAGCACCAACGUCCUCAACCUCCAAUGCAUCCCACCACAUGAUGAGGCCUGAAGAGCCUUGGUUUUUUG [G71A U112G]",
    "cat": "f"
  },
  {
    "seq": "GUCCAAUCUGUCCUCAGAGCACGAGAACAUCUUCGGAUGCAGAGGAGGCAGGCUUCGGUGGCGCGAUAGCGCCAACGUCCUCAACCUCCAAUGCAUCCCACCACAUGAUGAUGCCUGAAGAGCCUUGGUUUUUUG [A2U C11U U21A]",
    "cat": "f"
  },
  {
    "seq": "GACCAAUCUGCCCUGAGAGCUCGAGAACAUCUUCGGAUGCAGAGGAGGCAGGCUUCGGUGCCGCGAUAGCGCCAACGUCCUCAACCUCCAAUGCAUCCCACCACAUGAUGAUGCCUGAAGAGCCUUGGUUUUUUG [C15G G61C]",
    "cat": "f"
  },
  {
    "seq": "GACCAAUCUGCCCUCAGAGCUCGAGAACAUCUUCGGAUGCAGAGGAGGCAGGCUUCGGUCGCGCGAUAGCGCCAACGUCCUCAACCUCCAAUGCAUCCUACCACAUGAUGAUGCCUAAAGAGCCUUGGUUUUGUG [G60C C99U G117A U133G]",
    "cat": "f"
  },
  {
    "seq": "GACCAAUCUGCCCUCAGAGCUCGAGAACAUCUUCGGAUGCAGGGGAGGCAGGCUUCGGUGUCGCGAUAGCGCCAACGUCCUCAACCUCCAAUGCAUCCCACCACAUGAUGAUGCCUGAAGAGCCUUGGUUUUUUG [A43G G61U]",
    "cat": "f"
  },
  {
    "seq": "GACCAAUCUGGCCUCAGAGCUCGAGAACAUCUUCGGAUGCAGAGGAGGCAGACUUCGGUGGCGCGAUAGCGCCAACGUCCUCAACCUCCAAUGAAUCCCACCACAUGAUGAUGCCUGAAGAGCCUUGGUUUUUUG [C11G G52A C94A]",
    "cat": "t"
  },
  {
    "seq": "GACCAAUCUGCCCUCAGAGCUCGAGAACAUCUUCGGAUGAAGAGGAGGCAGGAUUCUGUGGCGCGAUAGCGCCAACGUCCUCAACCUCCAAUGCAUCCCACCACAUGAUGAUGCCUGAAGAGCCUUGGUUUUUUG [C40A C53A G57U]",
    "cat": "t"
  },
  {
    "seq": "GACCAAUCUGCCCUCAGAGCUCGAGAACAUCUUCGGAGGCAGAGGAGGUAGGCUUCGGUGGCGCGAUAGCGCCAACGUCCUCAACCUCCAAUGCAUCCCACCACAUGAUGAUGCCUGAAGAGCCGUGGUUUUUUG [U38G C49U U125G]",
    "cat": "f"
  },
  {
    "seq": "GACCAAUCUGCCCUCAGAGCUCGAGAACAUCUUCUGAUGCAGAGGAGGCAGGCUUCGGUGGCGUGAUAGCGCCAACGUCCUCAACCUCCUAUGCAUCCCACCACAAGAUGAUGCGUAAGGAGCCUUGGUUUUUUG [G35U C64U A90U U106A C115G G117A A119G]",
    "cat": "f"
  },
  {
    "seq": "GACCAAUCUGCCCUCAGAGCUCGAGAACAUCUUCGGAUGCAGAAGAGGUAGGCGUCGGUGGCGCGAUAGAGCCAACGUCCUCAACCUCCAAUGCAUCCCACCACAUGAUGAGGCCUGAAGAGCCUUGGUUUUUUG [G44A C49U U54G C70A U112G]",
    "cat": "f"
  },
  {
    "seq": "GACGAAGCUGCCUUCAGAGCUCGAGAACAUCUUCGGAUGCAGAGGAGGCAGGCUUCGGUGGCGCGAUAGCGCCAACGUCCUCAACCUCCAAUGCAUCCCACCACAUGAUGAUACCUGAAGAGCCUUGGUUUUUUG [C4G U7G C13U G113A]",
    "cat": "f"
  },
  {
    "seq": "GACCAAUCUGCCCUCAGAGCUCGAGAACAUCUUCGGAUACAGAGGAGGCAGGCUUCGGUGGCGCGAUAGCGCCAACGUCCUCAACCUCCAAUGCAUCCCACCACAUGAUGAUGCAUGAAGAGCCUUGGUUUUUUG [G39A C115A]",
    "cat": "t"
  },
  {
    "seq": "GACCAAUUUGCCCUCAGAGCUCGAGAACAUCUUCGGAUGCAGAGGAGGGAGGCUUCGGUGGCGCGAUAGCGCCAACGUCCUCAACCUCCAAUGCAUCCCACCACAUGAUGAUGCCUGAAGAGUCUUGGUUUUUUG [C8U C49G C123U]",
    "cat": "t"
  }
]
